pIC50: −log10 of the molar value.
// cross-study collection: pIC50 for Tyrosine-protein kinase Fyn (Homo sapiens)

INSERT INTO results (compound, recorded_metric, experimental_result) VALUES
  ('CCN(CC)CCN1CCC(Nc2ccc3c(c2)/C(=C(\c2cccc(F)c2)c2ncc[nH]2)C(=O)N3)CC1', 'pIC50', '6.30 to 7.30');

Value (pIC50, Tyrosine-protein kinase Fyn (Homo sapiens)) for record COc1cc(O[C@@H]2CCN(C)CC2(F)F)c2c(Nc3c(Cl)ccc4c3OCO4)ncnc2c1 = > 7.00

Value (pIC50, Tyrosine-protein kinase Fyn (Homo sapiens)) for record CS(=O)(=O)N1CCC(Nc2ccc3c(c2)/C(=C(\c2cccc(F)c2)c2ncc[nH]2)C(=O)N3)CC1 = < 5.30

Value (pIC50, Tyrosine-protein kinase Fyn (Homo sapiens)) for record Cc1nc(C#N)cc(Nc2cc(CCc3cc(NC(=O)c4cccc(S(=O)(=O)N(C)C)c4)ccc3C)n[nH]2)n1 = 7.62
